- System: S. pneumoniae (SPN)
- ASSAY NAME: SENTRY Brazil, NCCLS broth microdilution
- Format: cell-based, Streptococcus pneumoniae
- ASSAY CONDITIONS: 1999
Here, each record is paired with measured % S data.
Give the quantity in %, number only.

Some molecules with recorded % S:
>  <MOLECULE>
CC1(C)S[C@@H]2[C@H](NC(=O)Cc3ccccc3)C(=O)N2[C@H]1C(=O)O [penicillin]

>  <MEASURED ATTRIBUTE>
% S

>  <MEASURED VALUE>
83

$$$$
>  <MOLECULE>
CC[C@H]1OC(=O)[C@H](C)[C@@H](O[C@H]2C[C@@](C)(OC)[C@@H](O)[C@H](C)O2)[C@H](C)[C@@H](O[C@@H]2O[C@H](C)C[C@H](N(C)C)[C@H]2O)[C@](C)(O)C[C@@H](C)C(=O)[C@H](C)[C@@H](O)[C@]1(C)O [erythromycin]

>  <MEASURED ATTRIBUTE>
% S

>  <MEASURED VALUE>
88

$$$$

Task: Can you look up the measured % S of O=C(N[C@H](CO)[C@H](O)c1ccc([N+](=O)[O-])cc1)C(Cl)Cl [chloramphenicol] for me?
Output: 98

Task: What about this molecule? CN(C)[C@@H]1C(O)=C(C(N)=O)C(=O)[C@@]2(O)C(O)=C3C(=O)c4c(O)cccc4[C@@](C)(O)[C@H]3C[C@@H]12 [tetracycline]
Output: 75

* * *

- System: E. coli
- ASSAY NAME: SMART 2003 Europe, microdilution
- Type: cell-based, Escherichia coli
- ASSAY CONDITIONS: 1106 isolates
MEASURED ATTRIBUTE: per cent susceptible (%)
Give the quantity in %, number only.

Some compounds with recorded per cent susceptible:
>  <STRUCTURE SMILES STRING>
O=C(O)c1cn(C2CC2)c2cc(N3CCNCC3)c(F)cc2c1=O

>  <STUDY TARGET>
E. coli

>  <RESULT UNIT>
%

>  <per cent susceptible>
80

$$$$
>  <STRUCTURE SMILES STRING>
CC(C)(O/N=C(\C(=O)N[C@@H]1C(=O)N2C(C(=O)[O-])=C(C[n+]3ccccc3)CS[C@H]12)c1csc(N)n1)C(=O)O

>  <STUDY TARGET>
E. coli

>  <RESULT UNIT>
%

>  <per cent susceptible>
96

$$$$

Task: Can you look up the measured per cent susceptible of CO[C@@]1(NC(=O)Cc2cccs2)C(=O)N2C(C(=O)O)=C(COC(N)=O)CS[C@@H]21 for me?
Output: 94

* * *

Here, each record is paired with measured Susceptible isolates data.
- System: K. pneumoniae
- ASSAY NAME: E-test susceptibility
- Format: cell-based, Klebsiella pneumoniae
- ASSAY CONDITIONS: ICU
Give the quantity in %, number only.

Some compounds with recorded Susceptible isolates:
>  <COMPOUND>
C[C@@H](O)[C@H]1C(=O)N2C(C(=O)O)=C(SCCN=CN)C[C@H]12

>  <RESULT UNIT>
%

>  <Susceptible isolates>
100

$$$$
>  <COMPOUND>
CO/N=C(\C(=O)N[C@@H]1C(=O)N2C(C(=O)O)=C(COC(C)=O)CS[C@H]12)c1csc(N)n1

>  <RESULT UNIT>
%

>  <Susceptible isolates>
98

$$$$
>  <COMPOUND>
CC(C)(O/N=C(\C(=O)N[C@@H]1C(=O)N2C(C(=O)[O-])=C(C[n+]3ccccc3)CS[C@H]12)c1csc(N)n1)C(=O)O

>  <RESULT UNIT>
%

>  <Susceptible isolates>
98

$$$$

Task: Can you look up the measured Susceptible isolates of CO/N=C(\C(=O)N[C@@H]1C(=O)N2C(C(=O)[O-])=C(C[N+]3(C)CCCC3)CS[C@H]12)c1csc(N)n1 [cefepime] for me?
Output: 98

Task: What about this compound? CN(C)c1cc(NC(=O)CNC(C)(C)C)c(O)c2c1C[C@H]1C[C@H]3[C@H](N(C)C)C(O)=C(C(N)=O)C(=O)[C@@]3(O)C(O)=C1C2=O
Output: 93

* * *

- Tested on: E. coli
- ASSAY NAME: SMART 2003 Europe, microdilution
- Assay type: cell-based, Escherichia coli
- ASSAY CONDITIONS: 1106 isolates
Here, each record is paired with measured per cent susceptible data.

Some compounds with recorded per cent susceptible:
>  <COMPOUND>
CO/N=C(\C(=O)N[C@@H]1C(=O)N2C(C(=O)[O-])=C(C[N+]3(C)CCCC3)CS[C@H]12)c1csc(N)n1 [cefepime]

>  <per cent susceptible>
96%

$$$$
>  <COMPOUND>
C[C@@H](O)[C@H]1C(=O)N2C(C(=O)O)=C(S[C@@H]3CN[C@H](C(=O)N(C)C)C3)[C@H](C)[C@H]12

>  <per cent susceptible>
>99%

$$$$

// below: per cent susceptible requested for another compound
Task: Can you look up the measured per cent susceptible of C[C@H]1COc2c(N3CCN(C)CC3)c(F)cc3c(=O)c(C(=O)O)cn1c23 for me?
Output: 81%

* * *

Here, each record is paired with measured susceptible data.
- Test system: Escherichia coli (ECO)
- ASSAY NAME: Broth microdilution
- Format: cell-based
- ASSAY CONDITIONS: NAL-resistant isolates, 2001
Give the quantity in %, number only.

Some compounds with recorded susceptible:
>  <COMPOUND>
CNC(C)C1CCC(N)C(OC2C(N)CC(N)C(OC3OCC(C)(O)C(NC)C3O)C2O)O1 (stereo not shown)

>  <RESULT UNIT>
%

>  <susceptible>
68.9

$$$$
>  <COMPOUND>
CO/N=C(\C(=O)N[C@@H]1C(=O)N2C(C(=O)O)=C(COC(C)=O)CS[C@H]12)c1csc(N)n1

>  <RESULT UNIT>
%

>  <susceptible>
89.9

$$$$
>  <COMPOUND>
CC(C)(O/N=C(\C(=O)N[C@@H]1C(=O)N2C(C(=O)[O-])=C(C[n+]3ccccc3)CS[C@H]12)c1csc(N)n1)C(=O)O

>  <RESULT UNIT>
%

>  <susceptible>
93.3

$$$$

Task: Can you look up the measured susceptible of NC[C@H]1O[C@H](O[C@H]2[C@H](O)[C@@H](O[C@H]3O[C@H](CO)[C@@H](O)[C@H](N)[C@H]3O)[C@H](N)C[C@@H]2N)[C@H](N)C[C@@H]1O for me?
Output: 71.4

* * *

- Tested on: F. necrophorum
- ASSAY NAME: E-test, 13 clinical isolates
- Format: cell-based, Fusobacterium necrophorum
- ASSAY CONDITIONS: Fusobacterium necrophorum
Here, each record is paired with measured MIC90 data.
Give the quantity in µg/mL, number only.

Some molecules with recorded MIC90:
>  <STRUCTURE SMILES STRING>
CO/N=C(\C(=O)N[C@@H]1C(=O)N2C(C(=O)O)=C(COC(C)=O)CS[C@H]12)c1csc(N)n1

>  <RESULT UNIT>
µg/mL

>  <MIC90>
0.064

$$$$
>  <STRUCTURE SMILES STRING>
CCC[C@@H]1C[C@@H](C(=O)N[C@@H]([C@H]2O[C@H](SC)[C@H](O)[C@@H](O)[C@H]2O)[C@H](C)Cl)N(C)C1

>  <RESULT UNIT>
µg/mL

>  <MIC90>
0.064

$$$$
>  <STRUCTURE SMILES STRING>
C[C@H]1c2cccc(O)c2C(=O)C2=C(O)[C@]3(O)C(=O)C(C(N)=O)=C(O)[C@@H](N(C)C)[C@@H]3[C@@H](O)[C@@H]21

>  <RESULT UNIT>
µg/mL

>  <MIC90>
0.19

$$$$

Task: Can you look up the measured MIC90 of Cc1ncc([N+](=O)[O-])n1CCO for me?
Output: 0.5

* * *

- Test system: Nocardia spp.
- ASSAY NAME: E-test on Mueller Hinton agar, 81 clinical isolates
- Assay type: cell-based
- ASSAY CONDITIONS: read after 48 and 72 h
MEASURED ATTRIBUTE: MIC range

Some molecules with recorded MIC range:
>  <STRUCTURE SMILES STRING>
NCC[C@H](O)C(=O)N[C@@H]1C[C@H](N)[C@@H](O[C@H]2O[C@H](CN)[C@@H](O)[C@H](O)[C@H]2O)[C@H](O)[C@H]1O[C@H]1O[C@H](CO)[C@@H](O)[C@H](N)[C@H]1O

>  <MIC range>
0.016 to 2 mg/L

$$$$
>  <STRUCTURE SMILES STRING>
NC[C@H]1O[C@H](O[C@H]2[C@H](O)[C@@H](O[C@H]3O[C@H](CO)[C@@H](O)[C@H](N)[C@H]3O)[C@H](N)C[C@@H]2N)[C@H](N)C[C@@H]1O

>  <MIC range>
<0.016 to 24 mg/L

$$$$
>  <STRUCTURE SMILES STRING>
CN(C)c1ccc(O)c2c1C[C@H]1C[C@H]3[C@H](N(C)C)C(O)=C(C(N)=O)C(=O)[C@@]3(O)C(O)=C1C2=O

>  <MIC range>
0.016 to 4 mg/L

$$$$

// below: MIC range requested for another molecule
Task: Item: CC(=O)NC[C@H]1CN(c2ccc(N3CCOCC3)c(F)c2)C(=O)O1 Test system: Nocardia spp. Read-out: MIC range Value: ?
Output: 0.047 to 3 mg/L

These data points were gathered from paper PMC7129073.
